assay protocol: Half life of the compound in buffer at 50 uM at pH 6.0 by UV-vis spectrophotometric analysis
Assay type: physicochemical
measure: half-life at 50 µM (min)

{"smiles repr": "N#Cc1ccc(C(=[N+]=[N-])[C@H]2O[C@H](CO)[C@@H](O)[C@H](O)[C@H]2O)cc1", "value": 4.2}

---

assay protocol: Half life of the compound in buffer at 50 uM at pH 5.0 by UV-vis spectrophotometric analysis
Type: physicochemical
measure: half-life at 50 µM (min)

{"smiles repr": "N#Cc1ccc(C(=[N+]=[N-])[C@H]2O[C@H](CO)[C@@H](O)[C@H](O)[C@H]2O)cc1", "value": 2.35}
